Assay: Circular dichroism secondary structure (Dichroweb), with POPG
Assay type: physicochemical
Conditions: 20 °C
Procedure: Dichroweb software analyzes the secondary structure of LDKA peptides from circular dichroism spectroscope. The table presents the percentage of each helix and strand structure at different temperature. The data are analyzed using CONTIN-LL method and Reference Set 4 (Optimised for 190-240 nm). Peptide solutions (peptide concentration is 50 μM) were titrated with POPC and POPG LUVs (50, 100, 250, 500, 1000 μM) and the corresponding changes CD spectra collected. […]
No end group written: not given here.
Reported Peptide-POPG, Strand values for a set of substances

Substance: H-GLLDAAKLLAKAAGW-NH2 [Peptide 24F1]
Readout Units: %
Peptide-POPG, Strand: 0
//
Substance: H-GLADAAKLLLKAAGW-NH2 [Peptide 11D12]
Readout Units: %
Peptide-POPG, Strand: 0
//
Substance: H-GLDDLAKLLLKLAGW-NH2 [Peptide 25B2]
Readout Units: %
Peptide-POPG, Strand: 0
//
Substance: H-GLLDLLHLLLKAAGW-NH2 [Peptide K7H]
Readout Units: %
Peptide-POPG, Strand: 11
//
Substance: H-GLDDLLKALLKAAGW-NH2 [Peptide 4H9]
Readout Units: %
Peptide-POPG, Strand: 0
//
Substance: H-GLLDLPKALAKALGW-NH2 [Peptide 7G6]
Readout Units: %
Peptide-POPG, Strand: 2
//
Substance: GLLDDAKLLAKLAGW-AMIDE (GLLDDAKLLAKLAGW-NH2) [Peptide 7D12]
Readout Units: %
Peptide-POPG, Strand: 2
//
Substance: H-GLLDLLKLLLKLAGW-NH2 [Peptide 28H6]
Readout Units: %
Peptide-POPG, Strand: 32
//
Substance: H-GLADLAKLLLKLLGW-NH2 [Peptide 7F3]
Readout Units: %
Peptide-POPG, Strand: 12

----------
Test: ANTS/DPX leakage assay, POPC
Format: biochemical
Conditions: P:L = 1:1000, pH 7 phosphate buffer
No end group written: not given here.

Substance: H-GLLDLPKALAKALGW-NH2 [Peptide 7G6]
Readout Units: %
ANTS/DPX release, POPC: 48

Substance: H-GLADLAKLLLKLLGW-NH2 [Peptide 7F3]
Readout Units: %
ANTS/DPX release, POPC: 88

Substance: H-GLDDLAKLLLKLAGW-NH2 [Peptide 25B2]
Readout Units: %
ANTS/DPX release, POPC: 98

Substance: H-GLADAAKLLLKAAGW-NH2 [Peptide 11D12]
Readout Units: %
ANTS/DPX release, POPC: 8

Substance: H-GLLDLLKLLLKLAGW-NH2 [Peptide 28H6]
Readout Units: %
ANTS/DPX release, POPC: 99

Substance: GLLDDAKLLAKLAGW-AMIDE (GLLDDAKLLAKLAGW-NH2) [Peptide 7D12]
Readout Units: %
ANTS/DPX release, POPC: 6

Substance: H-GLLDAAKLLAKAAGW-NH2 [Peptide 24F1]
Readout Units: %
ANTS/DPX release, POPC: 15

Substance: H-GLDDLLKALLKAAGW-NH2 [Peptide 4H9]
Readout Units: %
ANTS/DPX release, POPC: 110

----------
Experiment: Circular dichroism secondary structure (Dichroweb), with POPC
Type: physicochemical
Conditions: 45 °C
No end group written: not given here.
Reported Peptide-POPC, Helix values for a set of substances

Substance: H-GLLDAAKLLAKAAGW-NH2 [Peptide 24F1]
Peptide-POPC, Helix [%]: 32
--
Substance: H-GLLDLPKALAKALGW-NH2 [Peptide 7G6]
Peptide-POPC, Helix [%]: 56
--
Substance: H-GLLDLLKLLLKLAGW-NH2 [Peptide 28H6]
Peptide-POPC, Helix [%]: 64
--
Substance: H-GLADLAKLLLKLLGW-NH2 [Peptide 7F3]
Peptide-POPC, Helix [%]: 77
--
Substance: H-GLDDLLKALLKAAGW-NH2 [Peptide 4H9]
Peptide-POPC, Helix [%]: 77
--
Substance: H-GLLDLLHLLLKAAGW-NH2 [Peptide K7H]
Peptide-POPC, Helix [%]: 80
--
Substance: H-GLADAAKLLLKAAGW-NH2 [Peptide 11D12]
Peptide-POPC, Helix [%]: 39
--
Substance: GLLDDAKLLAKLAGW-AMIDE (GLLDDAKLLAKLAGW-NH2) [Peptide 7D12]
Peptide-POPC, Helix [%]: 26
--
Substance: H-GLDDLAKLLLKLAGW-NH2 [Peptide 25B2]
Peptide-POPC, Helix [%]: 90
